system: HIV-1 strain IIIB; test: Retrovirucidal effect on HIV-1 strain IIIB (Table 3); type: cell-based; settings: pIC50=-log IC50, IC50 in M
measurement-type: HIV1 pIC50 strain IIIB
Note: the reply should be a number with no unit written.

Field: example entries. Status: answers known.
QUERY: Dear colleague, I am looking for the recorded HIV1 pIC50 strain IIIB of the following compound: CCc1c(C)[nH]c(=O)c(N)c1Cc1cccc(OC)c1 [Compound 120]
RESULT: 5.033

QUERY: # get_value(readout='HIV1 pIC50 strain IIIB', item= CCc1c(C)[nH]c(=O)c(N(CC)CC)c1C(=O)c1cccc(C)c1 [Compound 95] )
RESULT: 8.268

QUERY: Any idea what its HIV1 pIC50 strain IIIB is? The compound is CCc1c(C)[nH]c(=O)c(N)c1C(=O)c1ccc(Br)s1 [Compound 194]
RESULT: 4.665

QUERY: Which HIV1 pIC50 strain IIIB reading was recorded for the compound CCc1c(C)[nH]c(=O)c(N(C)Cc2ccccc2)c1Cc1cc(C)cc(C)c1 [Compound 67] ?
RESULT: 6.804

QUERY: Suppose we examine the compound CCc1c(C)[nH]c(=O)c(N(C)C)c1CNc1cccc(C)c1 [Compound 163] ; what HIV1 pIC50 strain IIIB value has been reported?
RESULT: 5.596

***
QUERY: Recorded HIV1 pIC50 strain IIIB for CCc1c(C)[nH]c(=O)c(N)c1C(=O)c1cccc(C)c1 [Compound 87] , please?
RESULT: 6.46

QUERY: Item CCc1[nH]c(=O)c(N(C)C)c(Cc2cc(C)cc(C)c2)c1C [Compound 28] has what recorded HIV1 pIC50 strain IIIB?
RESULT: 8.032

QUERY: Could you share which HIV1 pIC50 strain IIIB value was measured for CCc1c(C)[nH]c(=O)c(N(C)CCCSC)c1Cc1cc(C)cc(C)c1 [Compound 61] ?
RESULT: 7.693

QUERY: Name the recorded HIV1 pIC50 strain IIIB for CCc1c(C)[nH]c(=O)c(N(C)C)c1Cc1ccc(C)cc1C [Compound 34] .
RESULT: 5.019

QUERY: Field request: HIV1 pIC50 strain IIIB | item: CCCCNc1c(Cc2cc(C)cc(C)c2)c(CC)c(C)[nH]c1=O [Compound 69]
RESULT: 6.891

QUERY: Please look up its HIV1 pIC50 strain IIIB: CCc1c(C)[nH]c(=O)c(N(C)C)c1Cc1cccc(C)c1 [Compound 13]
RESULT: 8.824

QUERY: Which value of HIV1 pIC50 strain IIIB has been reported for CCCCc1cc(Cc2cc(C)cc(C)c2)c(N(C)C)c(=O)[nH]1 [Compound 90] in the records?
RESULT: 6.359

QUERY: Requested read-out: HIV1 pIC50 strain IIIB. Entry: CCc1c(C)[nH]c(=O)c(N(C)C)c1[S+]([O-])c1cc(C)cc(C)c1 (stereo not shown) [Compound 170]
RESULT: 8.553

QUERY: Reported HIV1 pIC50 strain IIIB, compound CCc1c(C)[nH]c(=O)c(N(C)C)c1Cc1cccc2ccccc12 [Compound 116] : ____
RESULT: 6.627

QUERY: Value lookup for HIV1 pIC50 strain IIIB; key = CCc1c(C)[nH]c(=O)c(N(C)C)c1Cc1cccc(F)c1 [Compound 42]
RESULT: 8.569

QUERY: Endpoint output: HIV1 pIC50 strain IIIB of Cc1cc(C)cc(Cc2cc(C)[nH]c(=O)c2N(C)C)c1 [Compound 101] . Value?
RESULT: 6.341

QUERY: Return reported HIV1 pIC50 strain IIIB; argument: CCc1c(C)[nH]c(=O)c(N(C)C)c1Cc1cc(C)cc(C)c1 [Compound 3]
RESULT: 8.004

Just for reference, patent US6683079B2 is where these values come from.
